Origin of measurements: ChEMBL document CHEMBL4689842

system: HEK-293T; assay: Incucyte cell viability with HEK293T; assay type: toxicity, cell-based; details: human, 0 h, 10 µM, compound concentration 10 uM, replicate number 2, timepoint 0 hours; note: filed as whole numbers so only -1 and 0 and 1 occur
Below: a set of entries, each annotated with reported Growth Rate.
Value Kind: Growth Rate

Molecule	Value Kind	Reading
CC(C)(C)c1ccc(C(=O)Nc2cn3cc(-n4ccnc4)ccc3n2)cc1.Cl.Cl	Growth Rate	1
Cc1ccc2[nH]c(CNCCCc3ccncc3)cc(=O)c2c1 [UCSF924NC]	Growth Rate	0
COc1ncc(F)cc1CNc1ccc(Cc2c[nH]c3ncc(C)cc23)c(F)n1	Growth Rate	1
CCc1cc(Nc2nccc(-c3c(-c4ccc(OC)c(C(=O)Nc5c(F)cccc5F)c4)nc4ccccn34)n2)c(OC)cc1N1CCC(N2CCN(S(C)(=O)=O)CC2)CC1	Growth Rate	0
COc1ccc2c(c1)O[C@H](c1ccc(OC)c(OC)c1)C[C@@H]2NC(=O)C1(c2ccc3c(c2)OC(F)(F)O3)CC1	Growth Rate	0
O=C(O)[C@H]1[C@H](Cn2nnc3ccccc3c2=O)CC[C@@H]1C(=O)c1ccc(OCCC2CCOCC2)cc1	Growth Rate	1
C/C(=N\NC(=O)[C@@H]1C(=O)NC[C@H]1c1ccccc1)c1cccc(Br)c1	Growth Rate	0

====

Below: a set of entries, each annotated with reported Population Mitochondria Different-Phenotype (%).
test system: Fibroblast; experiment: Multiplex assay against human fibroblast; type: toxicity, cell-based; conditions: 12 h, 1 µM, compound concentration 1 uM, replicate 1
Value Kind: Population Mitochondria Different-Phenotype (%)

Cc1ccc(S(=O)(=O)NC2c3ccccc3Oc3ccccc32)cc1 6
N#Cc1cccc(C(=O)Nc2cc(-c3ccccc3)nn2-c2ccccc2)c1 6
Cc1c(Nc2ccc(S(=O)(=O)N3CCN(C)CC3)cc2F)nc2ccc(Nc3cnn(C4CC4)c3)cn2c1=O 6

====

test system: Fibroblast; assay: Multiplex assay against human fibroblast; format: toxicity, cell-based; conditions: 12 h, 1 µM, compound concentration 1 uM, replicate 1
YES if Total Cell Count is below 200. NO if not; exact matches included in NO.

Compound	Answer Label
Cl.NC[C@@H]1O[C@H](C23CC4CC(CC(C4)C2)C3)Cc2c1ccc(O)c2O	YES
CC(Cc1ccc(O)c(O)c1)C(C)Cc1ccc(O)c(O)c1 (configuration not stated) [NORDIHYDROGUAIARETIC ACID]	YES
CCOc1ccn(-c2ccc(F)cc2)c(=O)c1C(=O)Nc1ccc(Oc2ccnc(N)c2Cl)c(F)c1	NO
Cl.Cn1c2c(c3ccc(Cl)c(Cl)c31)C(C#N)C1(CCNCC1)NC2=O (configuration not stated)	NO
CN1C(=O)[C@@H](NC(=O)c2cc3ccccc3[nH]2)N=C(c2ccccc2)c2ccccc21 [DEVAZEPIDE]	YES
CCCCCNC(=N)N/N=C/c1c[nH]c2ccc(OC)cc12.O=C(O)/C=C\C(=O)O [TEGASEROD MALEATE]	YES
N#Cc1cccc(C(=O)Nc2cc(-c3ccccc3)nn2-c2ccccc2)c1	YES
N#CCNC(=O)c1ccc(-c2ccnc(Nc3ccc(N4CCOCC4)cc3)n2)cc1	YES
CCOC(=O)CCNc1cc(N2CCc3ccccc3CC2)nc(-c2ccccn2)n1	NO
Cc1ccc(NC(=O)Nc2cc(C(F)(F)F)ccc2F)cc1Nc1ccc2c(c1)NC(=O)/C2=C\c1ccc[nH]1	YES
CC(C)[C@H](CO)Nc1nc(Nc2cccc(Cl)c2)c2ncn(C(C)C)c2n1	NO
